Attribute: pIC50
# System: 2.2.15 cells (HepG2 cells transformed with hepatitis virion)
# procedure summary: Toxicity analysis by uptake of neutral red dye in 2.2.15 cell cultures
# condition context: read-out: Cytotoxicity IC50; Table 2; Hep G-2 (2.2.15) cells
pIC50: −log10 of the molar value.

>  <compound>
Nc1ncnc2c1ncn2[C@@H]1CC[C@H](CO)O1

>  <pIC50>
3.60

$$$$
>  <compound>
CC(=O)SCCOP(=O)(OCCSC(C)=O)OC[C@@H]1O[C@H](n2cc(C)c(=O)[nH]c2=O)C[C@H]1N=[N+]=[N-] [Bis (Sate) β-L-AZTMP]

>  <pIC50>
3.70

$$$$
>  <compound>
CC(C)(C)C(=O)SCCOP(=O)(OCCSC(=O)C(C)(C)C)OCC1CCC(n2cnc3c(N)ncnc32)O1 [Bis (Sate) β-L-ddAMP]

>  <pIC50>
3.70

$$$$

* * *

Attribute: IC50
# subject of test: woodchuck hepatitis virus DNA polymerase (Woodchuck hepatitis B virus, UniProt P03160)
# Sequence (P03160 whole entry): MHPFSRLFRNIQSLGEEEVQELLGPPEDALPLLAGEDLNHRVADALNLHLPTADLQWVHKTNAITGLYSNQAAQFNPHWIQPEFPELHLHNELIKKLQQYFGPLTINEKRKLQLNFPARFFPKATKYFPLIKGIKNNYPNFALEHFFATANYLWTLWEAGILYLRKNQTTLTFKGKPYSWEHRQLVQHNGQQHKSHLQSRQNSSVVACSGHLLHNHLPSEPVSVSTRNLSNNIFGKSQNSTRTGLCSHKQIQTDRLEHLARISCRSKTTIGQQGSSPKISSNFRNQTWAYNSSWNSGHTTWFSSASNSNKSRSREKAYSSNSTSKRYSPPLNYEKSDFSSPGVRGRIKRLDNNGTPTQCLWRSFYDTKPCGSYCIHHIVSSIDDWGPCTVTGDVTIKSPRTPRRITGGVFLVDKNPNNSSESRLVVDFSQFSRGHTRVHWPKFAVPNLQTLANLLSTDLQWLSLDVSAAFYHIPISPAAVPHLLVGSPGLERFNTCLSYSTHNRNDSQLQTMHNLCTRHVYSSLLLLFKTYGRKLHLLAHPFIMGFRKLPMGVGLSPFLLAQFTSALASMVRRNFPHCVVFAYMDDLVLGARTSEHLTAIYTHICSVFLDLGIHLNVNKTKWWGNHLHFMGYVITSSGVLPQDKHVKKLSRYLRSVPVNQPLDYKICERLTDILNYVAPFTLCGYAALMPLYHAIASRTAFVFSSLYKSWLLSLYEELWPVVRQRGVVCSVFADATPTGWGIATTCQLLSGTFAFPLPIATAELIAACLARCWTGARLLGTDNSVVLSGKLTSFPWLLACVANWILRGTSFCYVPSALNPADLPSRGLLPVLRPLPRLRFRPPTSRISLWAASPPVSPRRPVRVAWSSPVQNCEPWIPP

>  <compound>
Nc1ncnc2c1ncn2[C@@H]1CC[C@H](COP(=O)(O)OP(=O)(O)OP(=O)(O)O)O1

>  <IC50 [nM]>
2100

$$$$
>  <compound>
Nc1nc(=O)n([C@@H]2CC[C@H](COP(=O)(O)OP(=O)(O)OP(=O)(O)O)O2)cc1F

>  <IC50 [nM]>
2000

$$$$
>  <compound>
Nc1ccn([C@@H]2CS[C@H](COP(=O)(O)OP(=O)(O)OP(=O)(O)O)O2)c(=O)n1 [Compound 3-TC-TP, reference compound]

>  <IC50 [nM]>
1000

$$$$
>  <compound>
Cc1cn([C@@H]2C[C@@H](N=[N+]=[N-])[C@H](COP(=O)(O)OP(=O)(O)OP(=O)(O)O)O2)c(=O)[nH]c1=O

>  <IC50 [nM]>
200

$$$$

* * *

# System: Hepatitis B virus
# procedure summary: Inhibition of HBV replication in transfected HepG-2 (2.2.15) cells (HBV virion DNA and replicative intermediates, blot hybridization)
# Assay type: cell-based
# condition context: Hepatitis B virus, HepG2 2.2.15, read-out: HBV RI EC50
pEC50: −log10 of the molar value.
reported endpoint: pEC50

>  <sample smiles>
Nc1nc(=O)n([C@H]2O[C@@H](CO)C[C@H]2F)cc1F

>  <reported endpoint>
pEC50

>  <assay result>
5.30

$$$$

* * *

# procedure summary: Toxicity analysis by uptake of neutral red dye in 2.2.15 cell cultures
# condition context: human, Cytotoxicity IC50, Table 2; Hep G-2 (2.2.15) cells

>  <compound>
Cc1cn([C@@H]2CC(N=[N+]=[N-])[C@H](CO)O2)c(=O)[nH]c1=O (stereo partly drawn) [β-L-AZT]

>  <IC50, mM>
1

$$$$
